# system: T1, human CD19 on Raji cells (human, UniProt P15391 20-556)
# T1 construct: whole, on cells
# T1 sequence (looked up): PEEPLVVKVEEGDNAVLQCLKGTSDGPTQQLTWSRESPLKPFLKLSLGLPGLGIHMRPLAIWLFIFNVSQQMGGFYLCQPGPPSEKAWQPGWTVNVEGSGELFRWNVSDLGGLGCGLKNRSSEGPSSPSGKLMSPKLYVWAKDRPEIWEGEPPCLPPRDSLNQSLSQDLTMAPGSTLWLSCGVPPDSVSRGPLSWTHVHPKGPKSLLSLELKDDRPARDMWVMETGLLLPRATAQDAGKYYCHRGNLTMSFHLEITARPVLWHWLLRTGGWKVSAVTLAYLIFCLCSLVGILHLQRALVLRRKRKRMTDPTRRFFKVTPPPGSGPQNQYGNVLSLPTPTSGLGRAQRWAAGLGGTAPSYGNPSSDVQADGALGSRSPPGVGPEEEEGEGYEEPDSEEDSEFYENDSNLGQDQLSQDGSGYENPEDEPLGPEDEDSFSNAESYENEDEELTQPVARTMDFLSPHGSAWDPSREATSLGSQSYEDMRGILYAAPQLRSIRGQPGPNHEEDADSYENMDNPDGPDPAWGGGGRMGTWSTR
# procedure summary: FACS on Raji cells
pEC50: −log10 of the molar value.
Decision: pEC50 >= 9 yields fulfilled, all other cases yield not fulfilled.

• F5.3.6 (antibody, human IgG1, V domains shown, human-murine chimeric antibody, human IgG1) VH: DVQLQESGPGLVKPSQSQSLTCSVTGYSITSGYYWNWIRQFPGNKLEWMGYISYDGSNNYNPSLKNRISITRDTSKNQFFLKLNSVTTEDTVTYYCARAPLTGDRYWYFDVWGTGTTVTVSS VL: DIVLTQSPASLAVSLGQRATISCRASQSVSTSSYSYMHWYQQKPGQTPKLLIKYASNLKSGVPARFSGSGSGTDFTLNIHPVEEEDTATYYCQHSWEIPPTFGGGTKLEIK = not fulfilled
• F6.5.20 (antibody, human IgG1, V domains shown, human-murine chimeric antibody, human IgG1) VH: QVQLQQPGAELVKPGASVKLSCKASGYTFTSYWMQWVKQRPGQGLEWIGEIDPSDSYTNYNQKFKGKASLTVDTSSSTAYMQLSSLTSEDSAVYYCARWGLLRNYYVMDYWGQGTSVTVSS VL: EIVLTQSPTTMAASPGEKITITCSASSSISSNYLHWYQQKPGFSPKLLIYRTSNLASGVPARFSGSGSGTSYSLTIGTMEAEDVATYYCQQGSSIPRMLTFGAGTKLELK = fulfilled
